Attribution: paper PMC10939060

Target: UniProtKB P08912
Test: Calcium mobilization assay with hM5-CHO cells, EC80 acetylcholine
Type: cell-based
Marks after values point to notes of the source that are not given here.
READOUT NAME: hM5 ACh Min

COMPOUND	hM5 ACh Min
C[C@@H]1CN(S(=O)(=O)c2ccc3c(c2)CCO3)CC[C@@H]1C(=O)Nc1ccc2scnc2c1 (racemic) [(rac)-22]	3^c %
Cc1nc2cc(NC(=O)C3CCN(S(=O)(=O)c4ccc5c(c4)CCO5)CC3)ccc2s1	19^c %
C[C@@H]1C[C@H](C(=O)Nc2ccc3scnc3c2)CCN1S(=O)(=O)c1ccc2c(c1)CCO2 (racemic) [(rac)-24]	2^c %
O=C(Nc1ccc2ncnn2c1)C1CCN(S(=O)(=O)c2ccc3c(c2)CCO3)CC1 [28b]	inactive

Recorded result, O=C(Nc1ccc2scnc2c1)C1CCN(S(=O)(=O)c2cccnc2)CC1 [29e] , hM5 ACh Min: 2^b %

Recorded result, O=C(Nc1ccc2nccnc2c1)C1CCN(S(=O)(=O)c2ccc3c(c2)CCO3)CC1 [28e] , hM5 ACh Min: inactive

Recorded result, O=C(Nc1ccc2occc2c1)C1CCN(S(=O)(=O)c2ccc3c(c2)CCO3)CC1 [28a] , hM5 ACh Min: inactive

Recorded result, O=C(Nc1ccc2scnc2c1)C1CCN(S(=O)(=O)c2ccc(Cl)nc2)CC1 [29c] , hM5 ACh Min: 3^b %

###

Test: In vitro clearance
Assay type: in vitro ADME, human
Conditions: human (h)
READOUT NAME: Predicted CLhep (L/h/kg)

MOLECULE	READOUT NAME	MEASURED RESULT
Cc1ccc(S(=O)(=O)N2CCC(C(=O)Nc3ccc4scnc4c3)CC2)cn1 [29d]	Predicted CLhep	0.24
O=C(Nc1ccc2scnc2c1)C1CCN(S(=O)(=O)c2ccc(Cl)nc2)CC1 [29c]	Predicted CLhep	0.66

A = C[C@@H]1C[C@@H](C(=O)Nc2ccc3scnc3c2)CCN1S(=O)(=O)c1ccc2c(c1)CCO2 (racemic) [(rac)-25]
B = O=C(Nc1ccc2scnc2c1)C1CCN(S(=O)(=O)c2ccc3ncccc3c2)CC1 [29b]
Q: Please tell me which of the two, A or B , has the higher reported Predicted CLhep value. Select an item and report its label.
Ans: A
(A: 1.08 L/h/kg, B: 0.6 L/h/kg)

###

Biological target: hM5 (Homo sapiens)
Sequence (P08912 whole entry): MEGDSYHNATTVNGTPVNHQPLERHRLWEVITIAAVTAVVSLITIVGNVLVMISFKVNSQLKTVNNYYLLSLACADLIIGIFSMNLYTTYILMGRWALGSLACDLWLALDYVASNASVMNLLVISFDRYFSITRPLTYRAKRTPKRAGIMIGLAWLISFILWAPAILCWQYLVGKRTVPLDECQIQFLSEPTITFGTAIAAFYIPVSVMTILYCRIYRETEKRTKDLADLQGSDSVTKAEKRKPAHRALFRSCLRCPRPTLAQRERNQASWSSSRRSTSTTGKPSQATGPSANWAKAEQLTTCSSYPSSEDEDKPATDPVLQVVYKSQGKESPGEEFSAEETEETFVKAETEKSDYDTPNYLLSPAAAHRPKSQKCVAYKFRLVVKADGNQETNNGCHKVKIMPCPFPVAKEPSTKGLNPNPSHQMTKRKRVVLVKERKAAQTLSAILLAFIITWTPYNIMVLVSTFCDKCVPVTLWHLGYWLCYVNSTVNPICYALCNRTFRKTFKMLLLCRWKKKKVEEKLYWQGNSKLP
Experiment: Calcium mobilization assay with hM5-CHO cells, EC80 acetylcholine
Format: cell-based
Marks after values point to notes of the source that are not given here.
READOUT NAME: hM5 ACh Min

COMPOUND	MEASURED RESULT
O=C(Nc1cnc2sccc2c1)C1CCN(S(=O)(=O)c2ccc3c(c2)CCO3)CC1 [28d]	inactive
O=C(Nc1ccc2nncn2c1)C1CCN(S(=O)(=O)c2ccc3c(c2)CCO3)CC1 [28c]	inactive
C[C@H]1CN(S(=O)(=O)c2ccc3c(c2)CCO3)CC[C@@H]1C(=O)Nc1ccc2scnc2c1 (racemic) [(rac)-23]	3^c %

###

Assay: In vitro clearance
Type: in vitro ADME, human
Settings: human (h)
READOUT NAME: Predicted CLhep (mL/min/kg)

MOLECULE	Predicted CLhep [mL/min/kg]
C[C@H]1CN(S(=O)(=O)c2ccc3c(c2)CCO3)CC[C@@H]1C(=O)Nc1ccc2scnc2c1 (racemic) [(rac)-23]	17
C[C@@H]1C[C@H](C(=O)Nc2ccc3scnc3c2)CCN1S(=O)(=O)c1ccc2c(c1)CCO2 (racemic) [(rac)-24]	19
O=C(Nc1ccc2snnc2c1)C1CCN(S(=O)(=O)c2ccc3c(c2)CCO3)CC1 [28g]	18
Cc1nc2cc(NC(=O)C3CCN(S(=O)(=O)c4ccc5c(c4)CCO5)CC3)ccc2s1	16
